tested on: HI-HeLa cells; assay: Cytotoxicity in mock-infected HI-HeLa cells (antirhinoviral assay, XTT); assay type: cell-based
Items are presented alongside their recorded CC50.

Exercise: Indicate its recorded CC50; the compound in question is CCOC(=O)/C=C/[C@H](CCC(N)=O)NC(=O)[C@H](Cc1ccccc1)NC(=O)[C@H](CC(C)C)NC(=O)SC1CCCC1
Key: > 100 µM

Read the next record carefully.
Exercise: Indicate its recorded CC50; the compound in question is CCOC(=O)/C=C/[C@H](CCC(N)=O)NC(=O)[C@H](Cc1ccccc1)NC(=O)[C@H](CC(C)C)NC(=O)c1ccc(C(=O)NC)cc1
Key: > 320 µM

----------
molecular target: Recombinant Rhinovirus 3C protease (RVP) serotype 2 (Human rhinovirus 2, UniProt P04936); construct: Recombinant Rhinovirus 3C proteases from serotypes 14, 16, 2 or 89; made in house; assay: Inhibition of Rhinovirus Protease (fluorescence resonance energy transfer assay), serotype 2; assay type: biochemical, human rhinovirus (HRV); conditions: progress curves in enzyme start experiments
Sequence (P04936 1508-1690): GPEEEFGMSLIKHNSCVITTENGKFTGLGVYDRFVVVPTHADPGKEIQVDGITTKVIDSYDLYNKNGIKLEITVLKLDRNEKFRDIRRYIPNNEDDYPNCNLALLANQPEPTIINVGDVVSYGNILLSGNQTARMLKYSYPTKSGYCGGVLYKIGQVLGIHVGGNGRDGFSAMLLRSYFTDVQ
experimental.endpoint: kobs/I

Exercise: Indicate its recorded kobs/I; the molecule in question is CC(C)C[C@H](NC(=O)OCc1ccccc1)C(=O)N[C@@H](Cc1ccccc1)C(=O)N[C@H](/C=C/C(=O)N1CCOC1=O)CCC(N)=O
Key: 600,000 M-1 sec-1

Exercise: Indicate its recorded kobs/I; the molecule in question is CCOC(=O)/C=C/[C@H](CCC(N)=O)NC(=O)[C@H](Cc1ccccc1)NC(=O)[C@H](CC(=O)N(C)C)NC(=O)OCc1ccccc1
Key: 2,200 M-1 sec-1

Exercise: Indicate its recorded kobs/I; the molecule in question is CCOC(=O)/C=C/[C@H](CCC(N)=O)NC(=O)[C@H](CC1CCCCC1)NC(=O)[C@H](CC(C)C)NC(=O)OCc1ccccc1
Key: 671 M⁻¹ s⁻¹

Exercise: Indicate its recorded kobs/I; the molecule in question is CCOC(=O)/C=C/[C@H](CCC(N)=O)NC(=O)[C@H](Cc1ccc(F)cc1)NC(=O)[C@H](CC(C)C)NC(=O)OCc1ccccc1
Key: 2,357 M-1 sec-1

More entries:
Exercise: Indicate its recorded kobs/I; the molecule in question is CC(C)C[C@H](NC(=O)OCc1ccccc1)C(=O)N[C@@H](Cc1ccccc1)C(=O)N[C@H](/C=C/C(=O)N1CCCC1=O)CCC(N)=O
Key: 14,000 M-1 sec-1

Exercise: Indicate its recorded kobs/I; the molecule in question is CCOC(=O)/C=C/[C@H](CCC(N)=O)NC(=O)[C@H](Cc1ccccc1)NC(=O)[C@@H](NC(=O)OCc1ccccc1)C(C)C
Key: 7,790 M-1 sec-1

Exercise: Indicate its recorded kobs/I; the molecule in question is CCOC(=O)/C=C/[C@H](CCC(N)=O)NC(=O)[C@H](Cc1ccc(CCO)cc1)NC(=O)[C@H](CC(C)C)NC(=O)OCc1ccccc1
Key: 691 M⁻¹ s⁻¹

Exercise: Indicate its recorded kobs/I; the molecule in question is CCOC(=O)/C=C/[C@H](CCC(N)=O)NC(=O)[C@H](Cc1ccccc1)NC(=O)[C@@H](NC(=O)SCC)C(C)(C)C
Key: 10,700 M-1 sec-1

Exercise: Indicate its recorded kobs/I; the molecule in question is CCOC(=O)/C=C/[C@H](CCC(N)=O)NC(=O)[C@H](Cc1ccccc1)NC(=O)[C@H](Cc1ccccc1)NC(=O)SCc1ccccc1
Key: 200,000 M-1 sec-1

Recorded values, source patent US6362166B1.
